# TARGET_OR_TEST_SYSTEM: DN-IV quality control recombinant protein (produced by the company) (dengue virus)
# ASSAY_EXPLANATION: BLI, antibody on AMC sensor
Rule: measured kon below 50000 M⁻¹ s⁻¹ gets true; anything equal to or greater than 50000 M⁻¹ s⁻¹ gets false.

# BINDER, LABEL_CLASS
records = [
    ("Mutation 1-36 (antibody, V domains shown) VH: EVQLQQPGPELVKPGASVKMSCKASGYTFTSTVIHWVRQKPGQGLEWIGYMNPYNDGLKYNEKFIGKAILTSDKSSSTAYMQLSSLTSEDSAVYYCTREGLFYVFDYWGQGTSVTVSS VL: QIVLTQSPAIMSASPGEKVTMTCSATSSLSYMHWYQQKSGTSPKRWIYDSSKLASGVPVRFSGSGSGTSYSLTISSMEAEDAATYFCQQWRSDLPTFGAGTKLELKR", "false"),
    ("Mutation 1-8 (antibody, V domains shown) VH: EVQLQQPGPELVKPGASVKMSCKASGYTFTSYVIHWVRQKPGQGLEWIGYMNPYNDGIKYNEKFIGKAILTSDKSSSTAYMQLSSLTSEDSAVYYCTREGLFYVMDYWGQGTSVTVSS VL: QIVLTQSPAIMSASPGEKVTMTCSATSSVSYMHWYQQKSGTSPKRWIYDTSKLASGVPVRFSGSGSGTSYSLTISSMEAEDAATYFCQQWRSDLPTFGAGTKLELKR", "true"),
    ("Mutation 1-29 (antibody, V domains shown) VH: EVQLQQPGPELVKPGASVKMSCKASGYTFTSYVIHWVRQKPGQGLEWIGYMNPYNDGIKYNEKFIGKAILTSDKSSSTAYMQLSSLTSEDSAVYYCTREGLFYVFDYWGQGTSVTVSS VL: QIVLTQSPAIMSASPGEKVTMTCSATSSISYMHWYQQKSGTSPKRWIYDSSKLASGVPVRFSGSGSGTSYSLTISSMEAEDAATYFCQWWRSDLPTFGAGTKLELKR", "false"),
    ("Mutation 1-23 (antibody, V domains shown) VH: EVQLQQPGPELVKPGASVKMSCKASGYTFTSYVIHWVRQKPGQGLEWIGYMNPYNDGLKYNEKFIGKAILTSDKSSSTAYMQLSSLTSEDSAVYYCTKEGLFYVFDYWGQGTSVTVSS VL: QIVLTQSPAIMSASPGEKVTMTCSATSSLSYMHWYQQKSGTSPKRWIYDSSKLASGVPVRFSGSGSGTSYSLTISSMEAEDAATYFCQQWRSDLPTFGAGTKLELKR", "true"),
    ("Mutation 1-30 (antibody, V domains shown) VH: EVQLQQPGPELVKPGASVKMSCKASGYTFTSTVIHWVRQKPGQGLEWIGYMNPYNDGLKYNEKFIGKAILTSDKSSSTAYMQLSSLTSEDSAVYYCTREGLFYVMDYWGQGTSVTVSS VL: QIVLTQSPAIMSASPGEKVTMTCSATSSLSYMHWYQQKSGTSPKRWIYDTSKLASGVPVRFSGSGSGTSYSLTISSMEAEDAATYFCQYWRSDLPTFGAGTKLELKR", "true"),
]
